Molecular target: Hexose transporter 1 (Plasmodium falciparum)
Assay: ST_JUDE_LEISH: Cytotoxicity at 2uM final concentration against transgenic Leishmania Mexicana promastigotes LmPfHT that are glucose transport deficient and complemented with the Plasmodium falciparum hexose transporter. Activity is measured by DNA content using SYBR green in vitro
Format: functional
Would you kindly list inhibition for each of these molecules?
Numbers only, in %.

For each of the molecules below, state inhibition.
1. COc1cc(Nc2nccc(N3CCC(NC(=O)c4cccc(C#N)c4)C3)n2)cc(OC)c1OC (stereo not given)
2. O=C(Nc1cccc(C(F)(F)F)c1)c1ccc(S(=O)(=O)NCC2CCCN2CC2CCCCC2)cc1 (stereo not given)
3. CCCCOc1ccc(/C=C/c2ccc(-c3c(C)[nH]c(C)c(Cl)c3=O)s2)cc1
4. COc1ccc2c(CNCCCCCCNCc3c(OC)ccc4cc(OC)ccc34)c(OC)ccc2c1
5. CN(CCC(O)c1ccc(Cl)c(Cl)c1)CC1CC1C(=O)c1ccccc1 (stereo not given)
6. COc1ccc(C2CC(=O)C3=C(C2)NC(C)=C(C(=O)OC(C)C)C3c2ccc(O)cc2)cc1OC (stereo not given)
7. COc1ccccc1C1CCN(C2CCC(NC(=O)c3cc(-c4ccc(Cl)cc4)cs3)CC2)CC1 (stereo not given)

1. 1.35
2. 3.93
3. 2.35
4. 107
5. 4.62
6. 8.07
7. 2.96

// for each molecule in input: emit inhibition
1. c1ccc2c3c(ccc2c1)Sc1c(ccc2ccccc12)N3
2. Cc1ccc(C(=O)Nc2ccc(Nc3ccnc4cc(-c5ccncc5)ccc34)cc2O)cc1
3. COc1ccc(C(=O)NC2CCN(c3ccnc4cc(Cl)ccc34)C2)cc1 (stereo not given)

1: 5.61; 2: -0.05; 3: 1.83

----------
Can you tell me inhibition for the items I'm about to list?
Target: Glucose transporter (Leishmania mexicana)
Assay: ST_JUDE_LEISH: Cytotoxicity at 2uM final concentration against transgenic Leishmania Mexicana promastigotes LmGT2 that are glucose transport deficient and complemented with the L. Mexicana glucose transporter 2. Activity is measured by DNA content using SYBR green in vitro
Type: functional
Answers are plain numbers, in %.

Below: 6 compounds and their reported inhibition.
Nc1ccn([C@@H]2O[C@H](COC(c3ccccc3)(c3ccccc3)c3ccccc3)[C@@H](O)[C@@H]2O)c(=O)n1
4.4
O=C(NC1CCN(CCCc2ccccc2)CC1)c1ccc(-c2cccc(C(F)(F)F)c2)s1
3.77
Cc1cccc2nc(-c3ccc(-c4cccc(CN5CCCC5CN)c4)cc3)[nH]c12 (centres undefined)
1.07
CCOC(=O)c1ccc(NC(=O)N[C@@H](Cc2ccccc2)C(=O)NC2CCN(Cc3ccc(O)c(OC)c3)C2)cc1 (some centres undefined)
3.01
COCCN1CCN(Cc2ccc(-c3ccc(-c4nc5cc(F)ccc5[nH]4)cc3)cc2)CC1
0.87
Cc1nnc(N2C(=N)SC(=Cc3ccc(-c4ccc(OC(F)(F)F)cc4)o3)C2=O)s1
3.61

For each of the compounds below, state inhibition.
1. O=C(Cc1ccc(Cl)cc1)NC1CCN(c2ccnc3cc(Cl)ccc23)C1 (centres undefined)
2. N#Cc1c(N)n(CCc2ccc(F)cc2)c2nc3ccccc3nc12
3. COc1ccc(NCCCNc2ccnc3ccccc23)cc1

[0.26, -0.08, 1.73]

----------
Target: Glucose transporter (Leishmania mexicana)
Assay: ST_JUDE_LEISH: Cytotoxicity at 2uM final concentration against transgenic Leishmania Mexicana promastigotes LmGT2 that are glucose transport deficient and complemented with the L. Mexicana glucose transporter 2. Activity is measured by DNA content using SYBR green in vitro
Type: functional
Think of 4% as a floor: if inhibition stands on it or above, it is YES; beneath it, NO.

Completed entries (count: 4):
O=C(Nc1ccccc1Br)c1cn(-c2ccccc2)nc1-c1cccc([N+](=O)[O-])c1
YES
Cc1ccc(NC(=O)c2cccc(CN3CCCN(Cc4cccc(O)c4)CC3)c2)cc1F
NO
COc1ccc(C(=O)CC(=O)c2ccc(OC)cc2OC)c(OC)c1
YES
CCOc1ccc2c(N/N=C/c3cccc([N+](=O)[O-])c3)cc(C)nc2c1
YES

Moving on to another compound below.
Given CCN(c1ccccc1)S(=O)(=O)c1ccc(OC)c(NC(=O)c2cccc(C(F)(F)F)c2)c1 , state whether its inhibition is at least 4%. YES
